System: Candida tropicalis
Procedure details: In vitro evaluation of minimum inhibitory concentration against Candida tropicalis 2.11
Type: functional
Assay context: Candida tropicalis; read-out: MIC
Experimental readout: MIC (µg/mL)
Give bare numbers, in µg/mL.

Below, each entry is followed by its recorded MIC result.
>>> observed_result("C[C@H]1N(C(=O)c2ccc(C(F)(F)F)cc2)C[C@H](O)O[C@@]1(Cn1cncn1)c1ccc(Cl)cc1Cl (racemic)")
20
>>> observed_result("C[C@H]1N(C(=O)c2ccc(OCC(F)(F)C(F)F)cc2)C[C@H](O)O[C@@]1(Cn1cncn1)c1ccc(F)cc1F (racemic)")
80
>>> observed_result("CCC(C)n1ncn(-c2ccc(N3CCN(c4ccc(OC[C@H]5CO[C@](Cn6cncn6)(c6ccc(Cl)cc6Cl)O5)cc4)CC3)cc2)c1=O (some centres not stated)")
20
>>> observed_result("C[C@H]1N(C(=O)c2ccc(C(F)(F)F)cc2)CC(=O)O[C@@]1(Cn1cncn1)c1ccc(Cl)cc1Cl (stereo in doubt; (-)-32a)")
40

Switching to the query record.
// query MIC value for entry C[C@H]1N(C(=O)c2ccc(C(F)(F)F)cc2F)CC(=O)O[C@@]1(Cn1cncn1)c1ccc(F)cc1F (racemic) 80
